B1: OR4K15 (parent)
chain: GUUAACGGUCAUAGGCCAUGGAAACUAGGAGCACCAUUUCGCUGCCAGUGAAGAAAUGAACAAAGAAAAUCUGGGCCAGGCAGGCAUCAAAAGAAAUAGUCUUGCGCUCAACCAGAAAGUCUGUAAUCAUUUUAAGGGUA

# Variants of: B1
# assay-remarks: self-cleavage, relative activity (ratio to wild type); higher = more cleavage; in vitro, sequencing; the parent is a self-cleaving ribozyme
# self-cleavage >= 0.3 gives T, anything below gives F

As a guide, the following entries are already answered.
>>> df
   variant_label  assigned_label
0       U2C U70C               T
1          A140U               T
2      U72A C76U               F
3      A67U A91G               T
4       U9C A82G               T
5    A111U U139A               F
6     U38C A118G               T
7      A55U A92U               T
8     A98G A114G               F
9      G14A A33G               T

Ask: Could you please find out whether A66G A95G has self-cleavage that meets 0.3 or exceeds it?
Reply: T

Ask: Could you please find out whether A5G A86G has self-cleavage that meets 0.3 or exceeds it?
Reply: T

Ask: Could you please find out whether A116U U120C has self-cleavage that meets 0.3 or exceeds it?
Reply: F

Ask: Could you please find out whether A18G A114C has self-cleavage that meets 0.3 or exceeds it?
Reply: F

Ask: Could you please find out whether A11U U39A has self-cleavage that meets 0.3 or exceeds it?
Reply: T

Ask: Could you please find out whether A36G U122A has self-cleavage that meets 0.3 or exceeds it?
Reply: T

Ask: Could you please find out whether A67U A134G has self-cleavage that meets 0.3 or exceeds it?
Reply: T

Ask: Could you please find out whether A30U U120C has self-cleavage that meets 0.3 or exceeds it?
Reply: T

Ask: Could you please find out whether G53U A111G has self-cleavage that meets 0.3 or exceeds it?
Reply: F

Ask: Could you please find out whether U49C A68C has self-cleavage that meets 0.3 or exceeds it?
Reply: T

Ask: Could you please find out whether A33G C113U has self-cleavage that meets 0.3 or exceeds it?
Reply: F

Ask: Could you please find out whether U43C A78U has self-cleavage that meets 0.3 or exceeds it?
Reply: T
